Target: Cellular tumor antigen p53 (Homo sapiens)
Experiment: TOX21_p53_BLA_p4_ratio: Tox21 HCT-116 p53 Agonism Beta-lactamase Assay, Ratio, Phase 4 (AID 2283601)
Method: TOX21_p53_BLA_p4 is a cell-based, single-readout assay that uses HCT116, a human intestinal cell line, […] in a 1536-well plate.TOX21_p53_BLA_p4_ratio is an assay readout measuring reporter gene via receptor activity and designed using inducible reporter (beta lactamase induction) detected with GAL4 b-lactamase reporter gene. […] This assay endpoint, TOX21_p53_BLA_p4_ratio, was analyzed in the positive analysis fitting direction relative to DMSO as the negative control and baseline of activity. […]
Results filed as inconclusive are left out. Calls of active or inactive are those of the source. How the source made its calls: active means hit-call score of the fitted dose curve at least 0.9, where 1 is the maximum; inconclusive means response in the unintended direction; inactive means score below 0.9.
Respond only with the outcome that fits, drawn from 1 (yes) = active, 0 (no) = inactive

CN1CCCC1 ... 0 (no)
CCCCCCCCCCCCCCCC[N+](C)(C)CCN(Cc1ccc(OC)cc1)c1ncccn1 ... 0 (no)
CCN1/C(=C/C=C/c2sc3ccccc3[n+]2CC)Sc2ccccc21 ... 1 (yes)
CCCCCCCCCCCCCC(=O)OCC(COP(=O)([O-])OCC[N+](C)(C)C)OC(=O)CCCCCCCCCCCCC (stereo unspecified) ... 0 (no)

How did this test come out for CC(=O)N[C@H]1[C@H]([C@H](O)[C@H](O)CO)OC(C(=O)O)=C[C@@H]1N=C(N)N ?
0 (no)

How did this test come out for Cc1ccccc1CNc1ncnc2c1ncn2[C@@H]1O[C@H](CO)[C@@H](O)[C@H]1O ?
0 (no)

Could you check what this test reported for O=P(O)(O)OP(=O)(O)O ?
0 (no)

Kindly provide the recorded test outcome for the following compound: C=C1CC[C@H](O)C/C1=C/C=C1\CCC[C@]2(C)[C@@H]([C@H](C)CC[C@@H](O)C(C)(C)O)CC[C@@H]12
1 (yes)

Answer briefly: the call reported for CSCC[C@H](NC(=O)[C@H](Cc1ccc(OS(=O)(=O)O)cc1)NC(=O)[C@@H](N)CC(=O)O)C(=O)NCC(=O)N[C@@H](Cc1c[nH]c2ccccc12)C(=O)N[C@@H](CCSC)C(=O)N[C@@H](CC(=O)O)C(=O)N[C@@H](Cc1ccccc1)C(N)=O in this assay.
0 (no)

###

Assay: ATG_TA_CIS: Attagene CIS-FACTORIAL HepG2 Assay for human TA Basal Promoter (AID 2282964)
Details: HepG2 Attagene CIS-factorial TA basal promoter reporter; actives raise or lower the signal
Calls of active or inactive are those of the source. How the source made its calls: active means hit-call score of the fitted dose curve at least 0.9, where 1 is the maximum; inactive means score below 0.9.
Result category, one only: active, inactive

O=S(=O)(O)c1cccc2ccccc12 ... inactive
C=CCOCC(CC)(CO)COCC=C ... inactive
CCOc1ccc2c(c1)C(C)CC(C)(C)N2 (stereo not given) ... inactive
COc1cccc(OC)c1C(=O)O ... inactive
C=CN1CCCCCC1=O ... inactive
N#CCN(CC#N)CCN(CC#N)CC#N ... inactive

Please indicate how the test categorized c1cc(N(CC2CO2)CC2CO2)ccc1Cc1ccc(N(CC2CO2)CC2CO2)cc1 (stereo not given) .
active

How did this test come out for CC/C=C\CCCCCO ?
inactive

Record lookup: outcome of this test for CCC(C)NC(N)=O (stereo not given) ?
inactive

Field: outcome | Entry: Sc1nc2ccccc2s1
inactive

Identify the outcome logged in this assay for the compound shown: CN(C)N=Nc1ccccc1
inactive

###

Target: Cellular tumor antigen p53 (Homo sapiens)
Assay: TOX21_p53_BLA_p3_ratio: Tox21 HCT-116 p53 Agonism Beta-lactamase Assay, Ratio, Phase 3 (AID 2283596)
Inconclusive results are not listed. The source made the active and inactive calls. Rule for the calls: active = hit-call score of the fitted dose curve at least 0.9, where 1 is the maximum; inconclusive = response in the unintended direction; inactive = score below 0.9.
Select the correct class. Options are 1 (yes) = active, 0 (no) = inactive and nothing else.

Look over these answered cases.
N#CC1(O)CCCCC1 ... 0 (no)
CCCCCCCCS(=O)C(C)Cc1ccc2c(c1)OCO2 (configuration not stated) ... 1 (yes)
NC(Cc1ccc(F)cc1)C(=O)O (configuration not stated) ... 0 (no)
CC(=O)OC(C)OC(=O)C(C)c1ccc(-c2ccccc2)c(F)c1 (configuration not stated) ... 0 (no)
Cc1ccccc1OCC(O)CO (configuration not stated) ... 0 (no)
CC(C)(C)CC(=O)OCC(=O)[C@@]12OC(C)(C)O[C@@H]1C[C@H]1[C@@H]3CCC4=CC(=O)C=C[C@]4(C)[C@@]3(F)[C@@H](O)C[C@@]12C ... 0 (no)

Query: recorded result category for OCCc1ccccn1 in this test
0 (no)

// param item: CC(C)=CCC1C(=O)N(c2ccccc2)N(c2ccccc2)C1=O ; yields the recorded call
1 (yes)

Which outcome was assigned to Clc1cc(Cl)c(Cl)nc1Cl in this test?
0 (no)

###

Read-out: Interleukin-8 (IL8), CXCL8 (gene 3576)
Experiment: BSK_hDFCGF_IL8: BioMAP Diversity Plus: hDFCGF Assay for Interleukin-8 (IL8) Biomarker Activity (AID 2283058)
Conditions: primary human foreskin fibroblasts; actives raise or lower the signal
Active and inactive are the calls of the source. Rule for the calls: active = hit-call score of the fitted dose curve at least 0.9, where 1 is the maximum; inactive = score below 0.9.
readout.name: outcome

// below: answered molecules
CN(C)c1ccc(C(c2ccccc2)c2ccc(N(C)C)cc2)cc1 ... inactive
CCC[Si](OC(C)=O)(OC(C)=O)OC(C)=O ... inactive
CCCCCCCCCC/C=C/C1CC(=O)OC1=O (stereo unspecified) ... inactive
O=C(C(=O)c1ccccc1)c1ccccc1 ... inactive
Sc1nc2ccccc2s1 ... inactive

Turning to the following molecule.
Fill in reported outcome for this entry: CC(C)CC(=O)CC(C)CC(C)C (stereo unspecified)
inactive

###

Experiment: ATG_CMV_CIS: Attagene CIS-FACTORIAL HepG2 Assay for human CMV (Internal Marker) (AID 2282928);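 further: endpoint acts as a background internal control marker rather than a target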
Settings: HepG2 CMV promoter reporter, transcription factor profiling; actives raise or lower the signal
Activity calls are given as the source filed them. Rule for the calls: active = hit-call score of the fitted dose curve at least 0.9, where 1 is the maximum; inactive = score below 0.9.
Pick one and only one: label 1 for active, label 0 for inactive

Below are worked cases with known answers.
CC(C)CC(=O)CC(C)C ... label 0
OCCc1ccccn1 ... label 0
COc1c2occc2cc2ccc(=O)oc12 ... label 1
CCOC(=O)c1ccccc1 ... label 0
[O-][n+]1ccc(Cl)cc1 ... label 0
O=C(C1CCCCC1)N1CC(=O)N2CCc3ccccc3C2C1 (stereo not given) ... label 0
COC(=O)CCSCCC(=O)OC ... label 0
CC(C)CC(=O)O ... label 0

Consider now this further molecule.
For this molecule, state the assay outcome: CCc1cc(C(N)=S)ccn1
label 0

###

Target: Cellular tumor antigen p53 (Homo sapiens) (UniProt P04637)
Sequence (P04637 whole entry, looked up): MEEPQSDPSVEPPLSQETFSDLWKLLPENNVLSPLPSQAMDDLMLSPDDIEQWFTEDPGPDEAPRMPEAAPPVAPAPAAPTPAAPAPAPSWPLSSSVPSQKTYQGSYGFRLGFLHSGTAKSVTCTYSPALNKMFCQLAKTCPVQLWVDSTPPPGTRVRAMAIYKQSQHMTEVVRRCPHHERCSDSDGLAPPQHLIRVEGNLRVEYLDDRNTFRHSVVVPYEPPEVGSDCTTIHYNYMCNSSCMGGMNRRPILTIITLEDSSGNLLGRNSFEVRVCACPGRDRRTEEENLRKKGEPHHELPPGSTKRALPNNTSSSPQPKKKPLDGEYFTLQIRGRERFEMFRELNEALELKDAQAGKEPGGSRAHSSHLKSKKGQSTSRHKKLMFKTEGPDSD
Assay: TOX21_p53_BLA_p3_ratio: Tox21 HCT-116 p53 Agonism Beta-lactamase Assay, Ratio, Phase 3 (AID 2283596)
Results filed as inconclusive are left out. The source made the active and inactive calls. Rule for the calls: active = hit-call score of the fitted dose curve at least 0.9, where 1 is the maximum; inconclusive = response in the unintended direction; inactive = score below 0.9.
Please reply with one of these outcomes: active, inactive

Here's what some known entries look like.
N#CC(c1ccc(Cl)cc1)c1c(Cl)cc(-n2ncc(=O)[nH]c2=O)cc1Cl (stereo unspecified) ... active
CCCCCCCCCCCCCCCCOCCOCCOCCOCCOCCOCCOCCOCCOCCOCCOCCOCCOCCOCCOCCOCCOCCOCCOCCOCCO ... active
Brc1c2ccccc2cc2ccccc12 ... inactive
NC(=O)C(c1ccccc1)(c1ccccc1)[C@@H]1CCN(CCc2ccc3c(c2)CCO3)C1 ... inactive
COc1c(N2CCNC(C)C2)c(F)cc2c(=O)c(C(=O)O)cn(C3CC3)c12 (stereo unspecified) ... inactive
CCC1OC(=O)C[C@@H](O)[C@H](C)[C@@H](O[C@@H]2O[C@H](C)C[C@H](N(C)C)[C@H]2O)[C@@H](CC=O)C[C@@H](C)C(=O)/C=C/[C@]2(C)OC2C1C (stereo partly specified) ... inactive
CCOC(=O)c1cccnc1 ... inactive
Cc1c(Cl)cccc1Nc1ccccc1C(=O)O ... active
CCOC(=O)COc1ccc(C)cc1 ... inactive
C1CN(CCOCCN2CCOCC2)CCO1 ... inactive

Which outcome was entered for the molecule CCCc1nn(C)c2c(=O)[nH]c(-c3cc(S(=O)(=O)N4CCN(C)CC4)ccc3OCC)nc12 in this test?
inactive

###

Read-out: Tissue Factor, F3 (gene 2152)
Assay: BSK_LPS_TissueFactor: BioMAP Diversity Plus: LPS Assay for Tissue Factor Biomarker Activity (AID 2283084)
Details: primary human HUVEC with PBMC; actives raise or lower the signal
Calls of active or inactive are those of the source. The calls were made as follows: active = hit-call score of the fitted dose curve at least 0.9, where 1 is the maximum; inactive = score below 0.9.
Parameter call: string, one of active, inactive

Oc1cccc2ccccc12 ... active
CCCCCCCCCC/C=C/C1CC(=O)OC1=O (centres undefined) ... inactive
CN(C)CCC(c1ccc(Cl)cc1)c1ccccn1 (centres undefined) ... inactive

Continue with the next compound.
Given CN(C)c1ccc(C(c2ccccc2)c2ccc(N(C)C)cc2)cc1 , state the outcome it received in this test.
inactive

###

Assay: TOX21_p53_BLA_p5_viability: Viability Assessment in the Tox21 HCT-116 p53 Agonism Beta-lactamase Assay, Phase 5 (AID 2283600)
Records with an inconclusive call do not appear. Calls of active or inactive are those of the source. Rule for the calls: active = hit-call score of the fitted dose curve at least 0.9, where 1 is the maximum; inconclusive = response in the unintended direction; inactive = score below 0.9.
Reply using exactly one outcome from active, inactive

Cc1cc(NS(=O)(=O)c2ccc(N)cc2)nc(C)n1 ... inactive

Please indicate how the test categorized O=C(/C=C/c1cccc(F)c1)NC1CC1 .
inactive
